assay: physchem; settings: water
property-name: solubility

## Task Sample COc1ccc(C(=O)c2ccccc2)c(O)c1 [2-hydroxy-4-methoxydibenzophenone] — what was its solubility?
## Result < 1000 µg/mL

====

Recorded measurements of separation factor of Li/Na, one per entry
assay: Liquid-liquid extraction from aqueous lithium-containing solution, ICP detection: lithium; conditions: feed B7 (cLi 0.833, cNa 55.60, cK 5.37 g/L, pH 12.05), 26°C; organic phase and phase ratio per example;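 note: component concentrations in the aqueous phase were measured by inductively coupled plasma optical emission spectrometry after shaking and phase separation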

Study these solved cases before continuing.
CC(=O)c1cc(OCc2ccccc2)ccc1O [Example 32, 2-hydroxy-5-benzyloxyacetophenone] = 10.3
CC(=O)c1ccc([N+](=O)[O-])cc1O [Example 35, 2-hydroxy-4-nitrocetophenone] = 145
COc1cccc(O)c1C(C)=O [Example 31, 2-hydroxy-6-methoxyacetophenone] = 10.5
CC(=O)c1cccc([N+](=O)[O-])c1O [Example 34, 2-hydroxy-3-nitrocetophenone] = 156
CC(=O)c1cc(I)ccc1O [Example 39, 2-hydroxy-5-iodoacetophenone] = 8
O=C(c1ccccc1)c1cc(Cl)ccc1O [Example 38, 2-hydroxy-5-chlorodibenzophenone] = 13.5
COc1ccc(C(C)=O)c(O)c1OC [Example 33, 2-hydroxy-3,4-dimethoxyacetophenone] = 7.4
CC(=O)c1cc(Cl)cc([N+](=O)[O-])c1O [Example 37, 5-chloro-2-hydroxy-3-nitrocetophenone] = 120

## Task I'd like to know its separation factor of Li/Na. The molecule in question is CC(=O)c1c(O)cccc1[N+](=O)[O-] [Example 36, 2-hydroxy-6-nitrocetophenone]
## Result 48
